molecular target: human H3 receptor (Homo sapiens); construct: expressed in transfected cells; experiment: Cyclic AMP accumulation (β-galactosidase reporter in SK-N-MC cells); format: cell-based; settings: read-out: pA2 (converted)
PROPERTY_NAME: Kb (nM)

Below: 5 molecules and their reported Kb.
MOLECULE	DISPLAY_UNIT	Kb
CN(C)CCC(Oc1ccc2[nH]ccc2c1)c1ccc(OCCCN2CCCCC2)cc1 (stereo not drawn) [Example 19]	nM	0.977
CN(C)CCC(Sc1ccccc1)c1ccc(OCCCN2CCCCC2)cc1 (stereo not drawn) [Example 67]	nM	0.631
CN(C)CCC(Oc1ccc(OCCCN2CCCCC2)cc1)c1ccc(Cl)cc1 (stereo not drawn) [Example 43]	nM	1.7
CNCCC(Oc1ccc(Cl)c(Cl)c1)c1ccc(OCCCN2CCCCC2)cc1 (stereo not drawn) [Example 71]	nM	10.5
CN(C)CCC(Oc1ccccc1)c1ccc(C#CCCN2CCCCC2)cc1 (stereo not drawn) [Example 21]	nM	0.661

[1] CN(C)CCC(Oc1ccc(OCCCN2CCCCC2)cc1)c1ccc(C(F)(F)F)cc1 (stereo not drawn) [Example 42]
[2] NCCC(Oc1ccc(C(F)(F)F)cc1)c1ccc(OCCCN2CCCCC2)cc1 (stereo not drawn) [Example 69]
*Q* Short answer wanted: higher Kb, 1 or 2 ? To answer, give the label that identifies your chosen option.
*A* 2

[P] CCC(C)N1CCN(C(=O)c2ccc(C(CCN(C)C)Oc3ccc(C(F)(F)F)cc3)cc2)CC1 (stereo not drawn) [Example 52]
[Q] CC(C)N1CCN(Cc2ccc(C(CCN(C)C)Oc3ccc(Cl)c(Cl)c3)cc2)CC1 (stereo not drawn) [Example 47]
*Q* Lab log: flag the item ( P or Q ) with the smaller Kb figure. State your choice using its label.
*A* P

[P] CC(C)N1CCN(Cc2ccc(C(CCN(C)C)Oc3ccccc3)cc2)CC1 (stereo not drawn) [Example 56]
[Q] CC(C)N1CCN(Cc2ccc(C(CCN(C)C)Oc3ccc(C(F)(F)F)cc3)cc2)CC1 (stereo not drawn) [Example 55]
*Q* Problem: Given the entries P and Q , determine which has the lower reported Kb. // respond with label for picked entry
*A* P
(P: 0.977 nM, Q: 9.33 nM)

====

biological target: human H3 receptor (Homo sapiens); construct: expressed in transfected cells; experiment: H3 receptor binding (N-[3H]-α-methylhistamine displacement, SK-N-MC cell membranes); details: 0.8 nM N-[3H]-α-methylhistamine, 60 min at 25° C.
pKi: −log10 of the molar value.
PROPERTY_NAME: pKi

The cases that follow already have their pKi on record.
COMPOUND	DATA_VALUE
CC(C)N1CCC(Oc2ccc(C(CCN(C)C)Oc3ccccc3)cc2)CC1 (centres unmarked)	9.10
CN(C)CCC(Oc1cccc(Br)c1)c1ccc(OCCCN2CCCCC2)cc1 (centres unmarked)	9.00

[I] CN(C)CCC(Oc1ccc(C#CCCN2CCOCC2)cc1)c1ccc(C(F)(F)F)cc1 (centres unmarked)
[II] CN(C)CCC(Oc1ccc(OCCCN2CCCCC2)cc1)c1ccc(C(F)(F)F)cc1 (centres unmarked)
[III] CN(C)CCC(Oc1ccc([N+](=O)[O-])cc1)c1ccc(OCCCN2CCCCC2)cc1 (centres unmarked)
*Q* Ascending by pKi, please: list the compounds accordingly. Please list the labels according to the requested order.
*A* I, II, III

====

The following compounds each carry a recorded pKi for Rat SERT (Rattus norvegicus).
pKi: −log10 of the molar value.
PROPERTY_NAME: pKi

Observe how each entry below is paired with its result.
COMPOUND	MEASUREMENT_TARGET	pKi
CC(C)N1CCC(Oc2ccc(C(CCN(C)C)Oc3ccccc3)cc2)CC1 (centres unmarked)	Rat SERT (Rattus norvegicus)	7.44
CN(C)CCC(Oc1ccc(C#CCCN2CCSCC2)cc1)c1ccccc1 (centres unmarked)	Rat SERT (Rattus norvegicus)	7.28
CN(C)CCC(Oc1ccc(Cl)cc1)c1ccc(OCCCN2CCCCC2)cc1 (centres unmarked)	Rat SERT (Rattus norvegicus)	8.70

[A] CN(C)CCC(Oc1ccccc1)c1ccc(CCCCN2CCCCC2)cc1 (centres unmarked)
[B] CN(C)CCC(Oc1ccc(C#CCCN2CCSCC2)cc1)c1ccc(C(F)(F)F)cc1 (centres unmarked)
*Q* Which of these two has the smaller recorded pKi: A or B ? Let me know the label of the one you choose.
*A* B

====

Reported Ki values, UniProtKB P31652.
PROPERTY_NAME: Ki (nM)

COMPOUND	DATA_VALUE
CN(C)CCC(Oc1ccc(C#CCCN2CCOCC2)cc1)c1ccc(Cl)cc1 (stereo not drawn)	181

[P] COc1ccc(OC(CCN(C)C)c2ccc(C#CCCN3CCSCC3)cc2)cc1 (stereo not drawn)
[Q] CN(C)CCC(Oc1ccc(C#CCCN2CCCCC2)cc1)c1ccc(F)cc1 (stereo not drawn)
*Q* Which of the two items, P and Q , has the greater recorded Ki? Refer to your chosen entry by its label in the reply.
*A* Q

[I] CCC(CC)N1CCN(Cc2ccc(C(CCN(C)C)Oc3ccc(C(F)(F)F)cc3)cc2)CC1 (stereo not drawn)
[II] c1ccc(OC(CCN2CCCC2)c2ccc(OCCCN3CCCCC3)cc2)cc1 (stereo not drawn)
*Q* Two entries are listed, I and II . Which one carries the higher Ki? Record your answer as the label of the chosen record.
*A* II
(II: 633 nM, I: 37 nM)

====

target: human H3 receptor (Homo sapiens); construct: expressed in transfected cells; experiment: H3 receptor binding (N-[3H]-α-methylhistamine displacement, SK-N-MC cell membranes); details: 0.8 nM N-[3H]-α-methylhistamine, 60 min at 25° C.
PROPERTY_NAME: Ki (nM)

COMPOUND	DISPLAY_UNIT	Ki
CN(C)CCC(Oc1ccc(C(F)(F)F)cc1)c1ccc(C(=O)N2CCN(C3CCCC3)CC2)cc1 (stereo not shown)	nM	3

[A] CNCCC(Oc1ccc(Cl)c(Cl)c1)c1ccc(OCCCN2CCCCC2)cc1 (stereo not shown)
[B] CN(C)CCC(Cc1ccccc1)c1ccc(OCCCN2CCCCC2)cc1 (stereo not shown)
[C] CCC(CC)N1CCN(C(=O)c2ccc(C(CCN(C)C)Oc3ccc(C(F)(F)F)cc3)cc2)CC1 (stereo not shown)
*Q* # desc sort on Ki across 3 compounds Write the labels in rank order as requested.
*A* C, A, B

====

Observed Ki for human H3 receptor (Homo sapiens, UniProt Q9Y5N1), reported per entry below.
PROPERTY_NAME: Ki (µM)

COMPOUND	DISPLAY_UNIT	Ki
CN(C)CCC(Oc1ccc(C#CCCN2CCOCC2)cc1)c1ccccc1 (stereo not shown)	µM	0.102
COc1cccc(OC(CCN(C)C)c2ccc(OCCCN3CCCCC3)cc2)c1 (stereo not shown)	µM	0.0007

[P] CCCCN1CCN(Cc2ccc(C(CCN(C)C)Oc3ccc(C(F)(F)F)cc3)cc2)CC1 (stereo not shown)
[Q] CCC(CC)N1CCN(Cc2ccc(C(CCN(C)C)Oc3ccc(C(F)(F)F)cc3)cc2)CC1 (stereo not shown)
*Q* Could you kindly indicate whether P or Q has the higher Ki value? // respond with label for picked entry
*A* P
(P: 0.073 µM, Q: 0.005 µM)

====

# Rat SERT (Rattus norvegicus, UniProt P31652): pKi values follow
# Sequence (P31652 whole entry): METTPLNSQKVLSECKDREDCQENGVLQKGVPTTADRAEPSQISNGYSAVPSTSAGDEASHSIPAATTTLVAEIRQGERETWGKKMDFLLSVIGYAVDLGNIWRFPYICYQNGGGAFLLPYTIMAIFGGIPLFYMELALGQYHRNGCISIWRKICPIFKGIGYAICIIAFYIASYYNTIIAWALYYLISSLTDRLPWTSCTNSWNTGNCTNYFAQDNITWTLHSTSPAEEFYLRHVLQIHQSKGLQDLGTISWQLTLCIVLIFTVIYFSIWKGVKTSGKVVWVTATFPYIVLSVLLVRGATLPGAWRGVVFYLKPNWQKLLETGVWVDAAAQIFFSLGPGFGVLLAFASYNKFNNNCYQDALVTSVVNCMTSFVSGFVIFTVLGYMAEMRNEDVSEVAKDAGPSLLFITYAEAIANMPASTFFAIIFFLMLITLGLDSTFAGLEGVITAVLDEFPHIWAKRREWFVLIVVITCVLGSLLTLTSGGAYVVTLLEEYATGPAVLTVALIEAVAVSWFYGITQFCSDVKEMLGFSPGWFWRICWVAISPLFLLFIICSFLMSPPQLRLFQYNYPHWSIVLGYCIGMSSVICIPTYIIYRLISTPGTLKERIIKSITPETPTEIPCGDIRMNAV
pKi: −log10 of the molar value.
PROPERTY_NAME: pKi

[a] CN(C)CCC(Oc1ccccc1)c1ccc(C#CCCN2CCOCC2)cc1 (stereo not shown) [Example 23]
[b] NCCC(Oc1ccccc1)c1ccc(OCCCN2CCCCC2)cc1 (stereo not shown) [Example 68]
[c] CN(C)CCC(Oc1cccc(Br)c1)c1ccc(OCCCN2CCCCC2)cc1 (stereo not shown) [Example 15]
[d] CCC(C)N1CCN(C(=O)c2ccc(C(CCN(C)C)Oc3ccc(C(F)(F)F)cc3)cc2)CC1 (stereo not shown) [Example 52]
*Q* Put these in order: smallest pKi first, largest last. I would appreciate it if you listed the labels in the requested order.
*A* d, a, b, c
(d: 7.48, a: 7.89, b: 8.15, c: 8.70)

====

target: human H3 receptor (Homo sapiens, UniProt Q9Y5N1); construct: expressed in transfected cells; test: Cyclic AMP accumulation (β-galactosidase reporter in SK-N-MC cells); assay type: cell-based; conditions: read-out: pA2 (converted)
Sequence (Q9Y5N1 whole entry): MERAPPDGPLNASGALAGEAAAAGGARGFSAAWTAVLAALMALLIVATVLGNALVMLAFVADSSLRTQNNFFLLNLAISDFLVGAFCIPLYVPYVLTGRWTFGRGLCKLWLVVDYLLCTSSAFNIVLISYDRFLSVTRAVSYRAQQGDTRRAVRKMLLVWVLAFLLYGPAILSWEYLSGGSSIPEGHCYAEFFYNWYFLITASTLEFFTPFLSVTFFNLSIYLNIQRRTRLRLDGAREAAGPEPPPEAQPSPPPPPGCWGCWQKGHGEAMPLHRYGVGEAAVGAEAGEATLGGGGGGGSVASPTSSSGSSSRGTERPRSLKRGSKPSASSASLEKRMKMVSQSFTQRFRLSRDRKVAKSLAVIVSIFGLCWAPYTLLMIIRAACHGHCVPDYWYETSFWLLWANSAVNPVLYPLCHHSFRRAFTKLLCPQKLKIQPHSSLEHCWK
PROPERTY_NAME: Kb (nM)

COMPOUND	MEASUREMENT_TARGET	DISPLAY_UNIT	DATA_VALUE
CN(C)CCC(Oc1ccc(C(F)(F)F)cc1)c1ccc(CN2CCN(C3CCCC3)CC2)cc1 (stereo not drawn)	human H3 receptor (Homo sapiens, UniProt Q9Y5N1)	nM	11.2
CCC(CC)N1CCN(Cc2ccc(C(CCN(C)C)Oc3ccc(C(F)(F)F)cc3)cc2)CC1 (stereo not drawn)	human H3 receptor (Homo sapiens, UniProt Q9Y5N1)	nM	18.6

[I] CC(C)N1CCN(C(=O)c2ccc(C(CCN(C)C)Oc3ccc(C(F)(F)F)cc3)cc2)CC1 (stereo not drawn)
[II] CC(C)N1CCC(Oc2ccc(OC(CCN(C)C)c3ccccc3)cc2)CC1 (stereo not drawn)
*Q* Between the entries labeled I and II , whose measured Kb is lower? Reply with the label of the item you choose.
*A* II
(II: 0.0977 nM, I: 0.933 nM)

[a] CN(C)CCC(Oc1ccc(C#CCCN2CCCCC2)cc1)c1ccc(C(F)(F)F)cc1 (stereo not drawn)
[b] CC(C)N1CCC(Oc2ccc(OC(CCN(C)C)c3ccc(C(F)(F)F)cc3)cc2)CC1 (stereo not drawn)
[c] CN(C)CCC(Oc1ccccc1)c1ccc(CCCCN2CCCCC2)cc1 (stereo not drawn)
*Q* # rank_down: sort by Kb, max first Returns: the labels arranged in the requested order.
*A* a, c, b
